- tested-system: canine IL-4RA (construct not given) (canine)
- procedure-text: SPR, IL-4RA immobilised, periplasmic Fab
Entries and their Improvement over parental values follow.
Give your result in fold as a bare value.

See these solved cases before continuing.
1) FJ2246MP05A03 (Fab, V domains shown) VH: EVQLVESGGDLVKPGGSLRLSCVASGLPFRDYAMAWVRQAPGKGLQWVSLISGSGGKTYYADAVKGRFTISRDNAKNTLYLQMNSLRAEDTAVYYCAVDRLTKTIRPQYYGLWVWGQGTLVTVSS VL: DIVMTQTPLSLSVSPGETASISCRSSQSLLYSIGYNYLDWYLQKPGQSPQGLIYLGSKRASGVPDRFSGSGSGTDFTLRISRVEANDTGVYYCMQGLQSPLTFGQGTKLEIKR; 2.3
2) FJ2246MP06G06 (Parental Fab of TB640_005) (Fab, V domains shown) VH: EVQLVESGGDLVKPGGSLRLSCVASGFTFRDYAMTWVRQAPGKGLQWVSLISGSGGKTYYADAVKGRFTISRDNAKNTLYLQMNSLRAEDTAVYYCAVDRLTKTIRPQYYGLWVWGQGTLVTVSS VL: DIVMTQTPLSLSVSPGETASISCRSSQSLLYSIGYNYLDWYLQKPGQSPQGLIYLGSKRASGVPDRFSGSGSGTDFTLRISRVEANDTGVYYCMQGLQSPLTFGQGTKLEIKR; 1

Asked: Quote Improvement over parental reported for FJ2246MP06H07 (Fab, V domains shown) VH: EVQLVESGGDLVKPGGSLRLSCVASGFTFRDYAMTWVRQAPGKGLQWVSLINGTGGKTYYADAVKGRFTISRDNAKNTLYLQMNSLRAEDTAVYYCAVDRLTKTIRPQYYGLWAWGQGTLVTVSS VL: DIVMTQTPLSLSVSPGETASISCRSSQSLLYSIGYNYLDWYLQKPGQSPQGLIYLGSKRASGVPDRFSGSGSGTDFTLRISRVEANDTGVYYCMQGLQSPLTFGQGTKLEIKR please.
Given back: 3.7
